# system.name: Alpha-1D adrenergic receptor (Rattus norvegicus, UniProt P23944)
# Sequence (P23944 whole entry): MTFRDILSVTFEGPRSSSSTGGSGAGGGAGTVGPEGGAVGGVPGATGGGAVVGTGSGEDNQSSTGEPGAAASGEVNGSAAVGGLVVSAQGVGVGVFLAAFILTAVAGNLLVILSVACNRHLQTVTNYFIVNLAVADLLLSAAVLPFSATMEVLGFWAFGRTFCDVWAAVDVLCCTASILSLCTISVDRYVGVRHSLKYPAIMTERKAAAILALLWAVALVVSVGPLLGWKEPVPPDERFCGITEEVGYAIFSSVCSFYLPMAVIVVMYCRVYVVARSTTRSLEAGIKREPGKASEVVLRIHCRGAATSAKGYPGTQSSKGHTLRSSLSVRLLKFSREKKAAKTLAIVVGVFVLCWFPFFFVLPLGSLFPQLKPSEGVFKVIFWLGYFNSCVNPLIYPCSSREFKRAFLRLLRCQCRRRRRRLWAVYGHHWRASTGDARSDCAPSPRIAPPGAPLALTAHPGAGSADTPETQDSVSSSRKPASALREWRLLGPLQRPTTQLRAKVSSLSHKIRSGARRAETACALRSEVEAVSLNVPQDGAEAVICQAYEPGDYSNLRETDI
Header: log10 Ki / Alpha-1D adrenergic receptor (Rattus norvegicus, UniProt P23944) / multiple publications
Heads up: the numbers are on a log10 scale; they represent Ki in nM.

Guide cases for log10 Ki, answers given:
{"molecule": "COc1cccc(OC)c1OCCNC[C@H]1Oc2ccccc2O[C@@H]1c1ccc(C)cc1", "log10 Ki": 2.28}
{"molecule": "COc1ccccc1N1CCN(CCn2c(=O)c3c(-c4ccccc4)csc3n(C)c2=O)CC1", "log10 Ki": -0.15}
{"molecule": "COc1cc2nc(N3CCN(C(=O)c4ccco4)[C@H](C(=O)NC(C)(C)C)C3)nc(N)c2cc1OC", "log10 Ki": 1.89}
{"molecule": "CS(=O)(=O)Nc1c(O)ccc2c1CCCC2C1=NCCN1 (stereo not given)", "log10 Ki": 3.13}
{"molecule": "COc1cccc(OC)c1OCCNCC1Oc2ccccc2OC1c1ccc(C)cc1 (racemic)", "log10 Ki": 1.07}

IN: Kindly indicate its recorded log10 Ki. Item: COc1cc2c(cc1OC)NCN(CCN1C[C@@H]3CCc4c(OC)cccc4[C@@H]3C1)C2
OUT: 2.28

IN: Kindly indicate its recorded log10 Ki. Item: COC(=O)c1ccc2c(=O)n(CCN3C[C@@H]4CCc5c(OC)cccc5[C@@H]4C3)c(=O)[nH]c2c1
OUT: -0.11

IN: Kindly indicate its recorded log10 Ki. Item: COc1cccc2c1CC[C@H]1CN(CCn3c(=O)[nH]c4c(OC)cccc4c3=O)C[C@@H]21
OUT: 0.06

IN: Kindly indicate its recorded log10 Ki. Item: COc1cccc2c1CC[C@H]1CN(CCn3c(=O)[nH]c4c(C)c(OC)sc4c3=O)C[C@@H]21
OUT: 0.16

IN: Kindly indicate its recorded log10 Ki. Item: COc1ccc2c(c1NS(C)(=O)=O)CCCC2C1=NCCN1 (stereo not given)
OUT: 3.19

IN: Kindly indicate its recorded log10 Ki. Item: COc1cccc2c1CC[C@H]1CN(CCn3c(=O)[nH]c4c(C)csc4c3=O)C[C@@H]21
OUT: -0.15

IN: Kindly indicate its recorded log10 Ki. Item: COc1cccc2c1CC[C@H]1CN(CCn3c(=O)[nH]c4ccccc4c3=O)C[C@@H]21
OUT: -0.21

IN: Kindly indicate its recorded log10 Ki. Item: COc1cccc2c1CC[C@H]1CN(CCn3c(=O)[nH]c4cnccc4c3=O)C[C@@H]21
OUT: 0.25

IN: Kindly indicate its recorded log10 Ki. Item: COc1cc2[nH]c(=O)n(CCN3C[C@@H]4CCc5c(OC)cccc5[C@@H]4C3)c(=O)c2cc1OC
OUT: 0.15

IN: Kindly indicate its recorded log10 Ki. Item: COc1ccccc1N1CCN(CCCn2c(=O)[nH]c3scc(-c4ccccc4)c3c2=O)CC1
OUT: 0.91

IN: Kindly indicate its recorded log10 Ki. Item: COc1cccc2c1CC[C@H]1CN(CCn3c(=O)[nH]c4cc(-c5ccccc5)sc4c3=O)C[C@@H]21
OUT: 0.64

IN: Kindly indicate its recorded log10 Ki. Item: COc1cccc2c1CCC1CN(CCn3c(=O)[nH]c4ccsc4c3=O)CC21 (stereo not given)
OUT: -0.04
